Measured EC50 accompanies every entry in the list below.
- Experimental System: EP2 prostanoid receptor (Homo sapiens, UniProt P43116)
- Construct: host or cells: CHO-K1
- Sequence (P43116 whole entry): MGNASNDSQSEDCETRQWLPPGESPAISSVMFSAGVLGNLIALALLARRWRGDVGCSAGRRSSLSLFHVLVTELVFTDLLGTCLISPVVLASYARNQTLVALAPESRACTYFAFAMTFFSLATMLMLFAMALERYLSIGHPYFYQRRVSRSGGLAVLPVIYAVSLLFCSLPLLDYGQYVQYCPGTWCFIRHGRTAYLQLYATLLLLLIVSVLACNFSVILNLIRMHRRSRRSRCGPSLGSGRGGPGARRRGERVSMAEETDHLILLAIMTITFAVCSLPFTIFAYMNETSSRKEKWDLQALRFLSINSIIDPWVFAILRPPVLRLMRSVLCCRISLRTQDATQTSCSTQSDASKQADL
- Experiment Summary: GloSensor cAMP assay in CHO-K1 cells co-transfected with the EP2 receptor
- Assay type: cell-based
- Recorded Conditions: 8.0 hr incubation time; read-out: EC50 (μM) 8.0 hr
- Procedure: cAMP is a second messenger involved in signal transduction of G-protein coupled receptors (GPCRs) acting through Gα-s and Gα-i proteins. […] Cell number was determined using a hemacytometer. […] Following incubation, cells were treated and analyzed. […] Cell number was determined using a hemacytometer. […] A first pre-read measurement was taken using a microplate reader (MicroLumat Plus). Plates were incubated for an additional 10 minutes at room temperature, followed by a second pre-read measurement. […]
Attribute Measured: EC50

>>> df
                         chemical_structure  value_reported
0  CCCCC[C@H](O)CC[C@@H]1[C@H]2Cc3cccc(OCC(=O)OCC)c3C[C@H]2C[C@H]1O         1.65 µM
1  CCCCCCCCOC(=O)COc1cccc2c1C[C@H]1C[C@@H](O)[C@H](CC[C@@H](O)CCCCC)[C@H]1C2         1.09 µM
2  CCCCCCCCCCCCOC(=O)COc1cccc2c1C[C@H]1C[C@@H](O)[C@H](CC[C@@H](O)CCCCC)[C@H]1C2          2.9 µM
3  CCCCC[C@H](O)CC[C@@H]1[C@H]2Cc3cccc(OCC(=O)O)c3C[C@H]2C[C@H]1O         0.44 µM
